# Assayed system: HLA-A*24 (human)
# Assay overview: UV-ligand exchange ELISA
Listing of recorded peptide exchange yield by entry.

So, YYLEVGKTLI [peptide SEQ ID No 211] ? Its peptide exchange yield was > 75%

So, LYLDKATLI [peptide SEQ ID No 198] ? Its peptide exchange yield was 50 to 75%
